run description: DPPH radical scavenging activity
experimental setup: compound solution 0.2 mM in MeOH, DPPH 0.1 mM, 40 min, 20 °C
Method: The redox activity of organosulfur compounds 1–6 can be assessed by the ability to interact with the stable radical 2,2-diphenyl-1-picrylhydrazyl (DPPH). The delocalization of the radical in the aromatic rings of DPPH ensures its high stability. […] The free radical scavenging activity was evaluated using the stable radical 2,2-diphenyl-1-picrylhydrazyl (DPPH), according to the method described by Brand-Williams with a slight modification. […]
reported property: DPPH, % (scavenging activity)

// solved cases for DPPH, % (scavenging activity) follow
>  <compound>
CC(C)(C)c1cc(SSc2cc(C(C)(C)C)c(O)c(C(C)(C)C)c2)cc(C(C)(C)C)c1O

>  <observed measurement>
81.56 ± 0.07%

$$$$
>  <compound>
COc1ccc(SSc2ccc(OC)c(OC)c2)cc1OC [Compound 3, bis(3,4-dimethoxyphenyl) disulfide]

>  <observed measurement>
non active

$$$$
>  <compound>
COc1ccccc1SSc1ccccc1OC [Compound 2, bis(2-methoxyphenyl) disulfide]

>  <observed measurement>
non active

$$$$
>  <compound>
c1ccc(SSSc2ccccc2)cc1 [Compound 1, diphenyl trisulfide]

>  <observed measurement>
non active

$$$$
>  <compound>
Oc1ccc(SSc2ccc(O)cc2)cc1 [Compound 4, 4,4′-dihydroxydiphenyl disulfide]

>  <observed measurement>
13.42 ± 0.02%

$$$$

// moving on: another record for DPPH, % (scavenging activity)
Value of measured DPPH, % (scavenging activity) for the entry c1ccc(SSc2ccccc2)cc1 [Compound 5, diphenyl disulfide] : non active

====

run description: NBT assay, superoxide radical anion formation by xanthine oxidase
Format: biochemical
experimental setup: sample solution 5 mM in DMSO
What NBT, % Inhibition was measured for each of the following?
Give bare numbers, in %.

>  <compound>
COc1ccc(SSc2ccc(OC)c(OC)c2)cc1OC [Compound 3, bis(3,4-dimethoxyphenyl) disulfide]

>  <NBT, % Inhibition, %>
24.3

$$$$

// moving on: another record for NBT, % Inhibition
Value of measured NBT, % Inhibition for the entry Oc1ccc(SSc2ccc(O)cc2)cc1 [Compound 4, 4,4′-dihydroxydiphenyl disulfide] : 57.8

====

Tested on: MCF-7
run description: MTT assay
Format: cell-based, human
experimental setup: Homo sapiens, MCF7, 72 h
reported property: pIC50
Answers are plain numbers, as −log10 of the molar value.

// solved cases for pIC50 follow
>  <compound>
COc1ccc(SSc2ccc(OC)c(OC)c2)cc1OC [Compound 3, bis(3,4-dimethoxyphenyl) disulfide]

>  <pIC50>
4.42

$$$$
>  <compound>
Oc1ccc(SSc2ccc(O)cc2)cc1 [Compound 4, 4,4′-dihydroxydiphenyl disulfide]

>  <pIC50>
4.34

$$$$
>  <compound>
c1ccc(SSSc2ccccc2)cc1 [Compound 1, diphenyl trisulfide]

>  <pIC50>
4.42

$$$$
>  <compound>
c1ccc(SSc2ccccc2)cc1 [Compound 5, diphenyl disulfide]

>  <pIC50>
4.46

$$$$
>  <compound>
COc1cccc2c1C(=O)c1c(O)c3c(c(O)c1C2=O)C[C@@](O)(C(=O)CO)C[C@@H]3O[C@H]1C[C@H](N)[C@H](O)[C@H](C)O1 [doxorubicine, doxorubicin, reference compound]

>  <pIC50>
6.55

$$$$

// moving on: another record for pIC50
Value of measured pIC50 for the entry COc1ccccc1SSc1ccccc1OC [Compound 2, bis(2-methoxyphenyl) disulfide] : 4.52

====

Tested on: MCF-7
run description: MTT assay
Format: cell-based, human
experimental setup: 72 h
reported property: IC50

Value of measured IC50 for the entry N.N.[Cl][Pt][Cl] [cisplatin, reference compound] : > 30 µM

====

Tested on: WI-38
run description: MTT assay
Type: cell-based
experimental setup: Homo sapiens, 72 h, non-tumourigenic cells
reported property: pIC50
Give bare numbers, as −log10 of the molar value.

// solved cases for pIC50 follow
>  <compound>
c1ccc(SSc2ccccc2)cc1 [Compound 5, diphenyl disulfide]

>  <observed measurement>
4.47

$$$$
>  <compound>
COc1ccc(SSc2ccc(OC)c(OC)c2)cc1OC [Compound 3, bis(3,4-dimethoxyphenyl) disulfide]

>  <observed measurement>
4.48

$$$$
>  <compound>
c1ccc(SSSc2ccccc2)cc1 [Compound 1, diphenyl trisulfide]

>  <observed measurement>
4.28

$$$$
>  <compound>
COc1ccccc1SSc1ccccc1OC [Compound 2, bis(2-methoxyphenyl) disulfide]

>  <observed measurement>
4.50

$$$$
>  <compound>
CC(C)(C)c1cc(SSc2cc(C(C)(C)C)c(O)c(C(C)(C)C)c2)cc(C(C)(C)C)c1O [Compound 6]

>  <observed measurement>
3.94

$$$$

// moving on: another record for pIC50
Value of measured pIC50 for the entry Oc1ccc(SSc2ccc(O)cc2)cc1 [Compound 4, 4,4′-dihydroxydiphenyl disulfide] : 4.54
